Source: patent US6828473B2

IC50 values by entry
Tested on: recombinant human PDE7
experiment-description: PDE inhibition SPA assay, PDE7
Type: biochemical
condition-summary: geometric mean of at least 3 determinations; substrate <= 1/3 Km
Where a name gives a salt, the structure may show the parent alone.

> print(dat)
                                   compound  observed.property       val
1  O=C(O)C1CCN(c2nc(NCc3ccc4c(c3)OCO4)c3cc(Cl)ccc3n2)CC1 [UK-227,786 (E4021), monohydrochloride]               IC50  > 100 µM

Query: Input CN1CC(=O)N2[C@H](c3ccc4c(c3)OCO4)c3[nH]c4ccccc4c3C[C@@H]2C1=O , output reported IC50.
Result: > 100 µM

Query: Input CCCc1nn(C)c2c(=O)[nH]c(-c3cc(S(=O)(=O)N4CCN(C)CC4)ccc3OCC)nc12 , output reported IC50.
Result: 19.7 µM

---

measurement-target: PDE6 isolated from bovine retina (Bos taurus, UniProt P11541+P23439)
Construct: PDE6 was isolated from bovine retina
Sequence (P11541 2-856 limits assumed): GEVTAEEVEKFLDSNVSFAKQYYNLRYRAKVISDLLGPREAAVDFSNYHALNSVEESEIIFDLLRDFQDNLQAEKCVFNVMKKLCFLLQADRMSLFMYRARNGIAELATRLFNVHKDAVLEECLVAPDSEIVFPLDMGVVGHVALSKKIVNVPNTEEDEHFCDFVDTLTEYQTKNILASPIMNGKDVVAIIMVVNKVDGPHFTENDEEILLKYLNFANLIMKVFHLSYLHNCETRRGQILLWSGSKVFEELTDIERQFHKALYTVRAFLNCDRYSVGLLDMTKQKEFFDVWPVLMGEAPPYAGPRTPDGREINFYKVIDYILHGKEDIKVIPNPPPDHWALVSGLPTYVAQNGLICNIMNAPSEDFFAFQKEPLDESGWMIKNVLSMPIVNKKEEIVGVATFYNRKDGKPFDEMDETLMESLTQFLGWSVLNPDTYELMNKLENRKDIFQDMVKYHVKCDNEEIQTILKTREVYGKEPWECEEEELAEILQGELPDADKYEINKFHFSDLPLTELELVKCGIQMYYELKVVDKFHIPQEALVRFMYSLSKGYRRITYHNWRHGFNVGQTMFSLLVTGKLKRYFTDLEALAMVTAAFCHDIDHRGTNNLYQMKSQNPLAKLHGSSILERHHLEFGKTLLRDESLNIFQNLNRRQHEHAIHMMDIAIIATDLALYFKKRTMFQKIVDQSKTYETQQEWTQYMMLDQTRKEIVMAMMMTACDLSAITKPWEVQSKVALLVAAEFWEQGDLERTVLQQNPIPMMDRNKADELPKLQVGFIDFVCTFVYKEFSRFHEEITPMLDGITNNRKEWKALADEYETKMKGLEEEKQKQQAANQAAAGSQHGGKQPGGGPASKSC
Sequence (P23439 2-850 limits assumed): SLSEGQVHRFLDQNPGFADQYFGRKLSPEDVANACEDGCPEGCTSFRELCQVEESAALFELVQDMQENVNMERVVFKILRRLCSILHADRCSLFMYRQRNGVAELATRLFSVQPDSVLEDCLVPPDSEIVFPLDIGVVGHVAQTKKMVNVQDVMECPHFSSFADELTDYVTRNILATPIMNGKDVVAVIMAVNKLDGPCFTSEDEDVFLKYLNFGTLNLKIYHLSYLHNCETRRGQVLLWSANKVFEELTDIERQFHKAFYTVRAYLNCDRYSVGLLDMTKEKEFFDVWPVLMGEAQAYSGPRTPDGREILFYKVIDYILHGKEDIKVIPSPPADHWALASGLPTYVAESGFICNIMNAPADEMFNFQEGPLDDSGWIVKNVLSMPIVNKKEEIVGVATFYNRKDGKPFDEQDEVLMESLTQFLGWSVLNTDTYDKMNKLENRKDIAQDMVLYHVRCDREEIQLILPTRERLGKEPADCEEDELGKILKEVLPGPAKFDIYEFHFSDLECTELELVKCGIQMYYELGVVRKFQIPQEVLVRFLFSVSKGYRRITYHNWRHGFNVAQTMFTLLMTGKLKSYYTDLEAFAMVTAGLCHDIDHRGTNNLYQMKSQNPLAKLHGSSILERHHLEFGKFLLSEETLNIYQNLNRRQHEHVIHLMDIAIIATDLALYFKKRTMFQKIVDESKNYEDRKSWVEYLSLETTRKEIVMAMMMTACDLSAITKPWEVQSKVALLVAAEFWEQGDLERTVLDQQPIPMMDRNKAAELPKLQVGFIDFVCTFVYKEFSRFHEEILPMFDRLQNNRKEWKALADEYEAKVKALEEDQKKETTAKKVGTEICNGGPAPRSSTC
experiment-description: PDE inhibition SPA assay, PDE6
Structures can show the parent of a compound that is named as a salt.
observed-property: pIC50
pIC50 here: minus log base 10 of the concentration, concentration in moles per litre.

Query: Input O=C(O)C1CCN(c2nc(NCc3ccc4c(c3)OCO4)c3cc(Cl)ccc3n2)CC1 [UK-227,786 (E4021), monohydrochloride] , output reported pIC50.
Result: 5.33
